molecular target: NACHT, LRR and PYD domains-containing protein 3 (Mus musculus, UniProt Q8R4B8); test: Inhibition of NLRP3 inflammasome activation in LPS-stimulated mouse bone marrow-derived macrophages assessed as reduction in IL-1beta secretion preincubated for 30 mins followed by nigericin addition and measured after 30 mins by ELISA
Sequence (Q8R4B8 whole entry, the tested form may be a part): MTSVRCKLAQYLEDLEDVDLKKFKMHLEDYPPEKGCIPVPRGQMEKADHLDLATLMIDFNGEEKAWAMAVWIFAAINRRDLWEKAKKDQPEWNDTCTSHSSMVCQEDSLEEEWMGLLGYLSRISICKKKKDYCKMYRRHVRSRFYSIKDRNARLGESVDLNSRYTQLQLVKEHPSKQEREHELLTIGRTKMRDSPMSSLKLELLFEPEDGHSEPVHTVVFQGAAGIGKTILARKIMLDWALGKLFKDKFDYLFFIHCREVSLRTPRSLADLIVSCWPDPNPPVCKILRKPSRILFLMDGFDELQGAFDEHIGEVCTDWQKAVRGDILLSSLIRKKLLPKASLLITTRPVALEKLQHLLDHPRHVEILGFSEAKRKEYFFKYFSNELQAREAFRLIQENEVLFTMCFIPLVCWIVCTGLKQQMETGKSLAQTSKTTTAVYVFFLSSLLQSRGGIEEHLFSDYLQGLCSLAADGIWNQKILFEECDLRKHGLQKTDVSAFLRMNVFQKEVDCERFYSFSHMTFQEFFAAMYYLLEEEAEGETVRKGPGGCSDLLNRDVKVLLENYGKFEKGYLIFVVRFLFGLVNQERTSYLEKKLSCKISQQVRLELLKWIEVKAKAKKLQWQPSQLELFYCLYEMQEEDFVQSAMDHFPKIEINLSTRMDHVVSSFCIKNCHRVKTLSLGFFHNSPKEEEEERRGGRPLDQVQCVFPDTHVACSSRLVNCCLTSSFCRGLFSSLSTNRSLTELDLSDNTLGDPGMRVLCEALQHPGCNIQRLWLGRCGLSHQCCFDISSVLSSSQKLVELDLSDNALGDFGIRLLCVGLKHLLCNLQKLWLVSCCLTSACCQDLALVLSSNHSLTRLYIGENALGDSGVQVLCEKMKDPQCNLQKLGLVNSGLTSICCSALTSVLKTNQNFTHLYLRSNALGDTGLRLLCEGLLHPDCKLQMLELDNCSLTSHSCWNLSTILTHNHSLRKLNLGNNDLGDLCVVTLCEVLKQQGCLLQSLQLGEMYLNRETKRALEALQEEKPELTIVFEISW
Readout Label: IC50 (nM)
# value in nM; strip the unit string

As a guide, the following entries are already answered.
- Smiles Notation: "C=C1C(=O)[C@]23[C@H](O)[C@H]1CC[C@H]2[C@@]12CO[C@]3(O)[C@@H](O)[C@@H]1C(C)(C)CC[C@@H]2O"
  U: "nM"
  IC50: 810
- Smiles Notation: "COc1cc(/C=C/c2ccc(NC(=O)C3CC3)cc2)c(/C=C/[N+](=O)[O-])c(OC)c1"
  U: "nM"
  IC50: 560
- Smiles Notation: "O=[N+]([O-])/C=C/c1ccc2c(c1)OCO2"
  U: "nM"
  IC50: 2310

In the following, a different compound is considered.
So what's the measured IC50 for this one? CCCCNC(=O)COc1ccc(/C=C/c2cc(OC)cc(OC)c2/C=C/[N+](=O)[O-])cc1
7180

====

Each record here notes measured half-life.
assay: Half life in human liver microsomes preincubated for 5 mins followed by NADPH addition and measured after 5 to 60 mins by LC-MS/MS analysis; format: ADME, Microsome
Could you write the number and then its unit?

- Smiles Notation: "COc1ccc2c(c1)[C@]13CCCC[C@@H]1[C@H](C2)N(C)CC3"
  half-life: "31.2 min"

Consider the molecule shown here: COc1cc(/C=C/c2ccc(NC(=O)C3CC3)cc2)c(/C=C/[N+](=O)[O-])c(OC)c1 What is its recorded half-life?
68.1 min

====

experiment: AUC (0 to infinity) in mouse at 2 mg/kg, iv measured after 0.08 to 24 hrs by LC-MS/MS analysis; assay type: ADME, organism-based; set-up: route intravenous, time upper 24 hrs, dose 2 mg/kg, time lower 0.08 hrs; settings: in vivo
Readout Label: AUC(0-inf) (ng·h/mL)
Please state the figure in ng·h/mL; there is no need to write the unit.

Looking for the measured AUC(0-inf) of COc1cc(/C=C/c2ccc(NC(=O)C3CC3)cc2)c(/C=C/[N+](=O)[O-])c(OC)c1 , can you help?
583

====

microsomal CLint values, listed per item
experiment: Intrinsic clearance in human liver microsomes preincubated for 5 mins followed by NADPH addition and measured after 5 to 60 mins by LC-MS/MS analysis; format: ADME, Microsome; conditions: time 5-60 min, read-out: CLH
Just the number please, in µL/min/mg, no unit attached.

- Smiles Notation: "COc1cc(/C=C/c2ccc(NC(=O)C3CC3)cc2)c(/C=C/[N+](=O)[O-])c(OC)c1"
  Measured: 20.3

Give its microsomal CLint value. Item: COc1ccc2c(c1)[C@]13CCCC[C@@H]1[C@H](C2)N(C)CC3
44.5

====

experiment: Clearance in mouse at 2 mg/kg, iv measured after 0.08 to 24 hrs by LC-MS/MS analysis; format: ADME, organism-based; settings: in vivo, time 0.08-24 hrs
Readout Label: clearance (mL/min/kg)
Number in mL/min/kg, nothing else.

Which clearance value is on record for COc1cc(/C=C/c2ccc(NC(=O)C3CC3)cc2)c(/C=C/[N+](=O)[O-])c(OC)c1 ?
87.5

====

test system: L02; assay: Cytotoxicity against human L-02 cells incubated for 24 hrs by MTT assay; type: cell-based; conditions: L02, 24 h
pIC50: −log10 of the molar value.
Readout Label: pIC50

What measured pIC50 goes with COc1cc(/C=C/c2ccc(OCC(=O)NCc3ccc(C#N)cc3)cc2)c(/C=C/[N+](=O)[O-])c(OC)c1 ?
< 4.00

Try the compound CCCCNC(=O)COc1ccc(/C=C/c2cc(OC)cc(OC)c2/C=C/[N+](=O)[O-])cc1
< 4.00

====

assay: Cmax in mouse at 20 mg/kg, po measured up to 24 hrs by LC-MS/MS analysis; type: ADME, organism-based; parameters: route oral, dose 20 mg/kg, time <=24; conditions: in vivo
Readout Label: Cmax (ng/mL)
Just the number please, in ng/mL, no unit attached.

I would be grateful if you could share the reported Cmax for COc1cc(/C=C/c2ccc(NC(=O)C3CC3)cc2)c(/C=C/[N+](=O)[O-])c(OC)c1 .
95.1

====

Listed molecules paired with reported CLhep predicted
assay: Hepatic clearance in mouse liver microsomes preincubated for 5 mins followed by NADPH addition and measured after 5 to 60 mins by LC-MS/MS analysis; type: ADME, Microsome; details: time 5-60 min
Give the value in mL/min/kg but do not write mL/min/kg after it.

- Smiles Notation: "COc1ccc2c(c1)[C@]13CCCC[C@@H]1[C@H](C2)N(C)CC3"
  CLhep predicted (mL/min/kg): 70.6

Okay, next one:
Need CLhep predicted of COc1cc(/C=C/c2ccc(NC(=O)C3CC3)cc2)c(/C=C/[N+](=O)[O-])c(OC)c1 , thanks.
52.5

====

experiment: Half life in mouse liver microsomes preincubated for 5 mins followed by NADPH addition and measured after 5 to 60 mins by LC-MS/MS analysis; assay type: ADME, Microsome; details: time 5-60 min
Readout Label: half-life (min)
Unit min implied. Number only.

- Smiles Notation: "COc1cc(/C=C/c2ccc(NC(=O)C3CC3)cc2)c(/C=C/[N+](=O)[O-])c(OC)c1"
  half-life / min: 43.3

// moving on: another record for half-life
half-life lookup needed for COc1ccc2c(c1)[C@]13CCCC[C@@H]1[C@H](C2)N(C)CC3 , thanks.
16.6

====

Examples of compounds with documented pIC50 follow.
tested on: L02; assay: Cytotoxicity against human L-02 cells incubated for 24 hrs by MTT assay; type: cell-based; conditions: L02, 24 h
pIC50: −log10 of the molar value.

Some compounds with known pIC50 results, for comparison:
- Compound: "COc1ccc(NC(=O)COc2ccc(/C=C/c3cc(OC)cc(OC)c3/C=C/[N+](=O)[O-])cc2)cc1"
  pIC50: "< 4.00"
- Compound: "COCC(=O)Nc1ccc(/C=C/c2cc(OC)cc(OC)c2/C=C/[N+](=O)[O-])cc1"
  pIC50: "< 4.00"
- Compound: "COCCOc1ccc(/C=C/c2cc(OC)cc(OC)c2)cc1"
  pIC50: "< 4.00"
- Compound: "CCCC(C)C(=O)Nc1ccc(/C=C/c2cc(OC)cc(OC)c2/C=C/[N+](=O)[O-])cc1 (stereo not given)"
  pIC50: "< 4.00"

Proceeding to the next compound to report its pIC50.
Would you kindly share the measured pIC50 for COc1cc(/C=C/c2ccc(OCC(=O)NCc3ccncc3)cc2)c(/C=C/[N+](=O)[O-])c(OC)c1 ?
4.20

====

biological target: NACHT, LRR and PYD domains-containing protein 3 (Mus musculus) (UniProt Q8R4B8); experiment: Inhibition of NLRP3 inflammasome activation in LPS-stimulated mouse J774A.1 cells assessed as inhibition of cell pyrolysis at 20 uM incubated for 1 hr followed by ATP addition and measured after 30 mins by Hoechst 33342/propidium iodide staining based high content screening method relative to control; settings: J774.A1, time 1.5 hrs
Sequence (Q8R4B8 whole entry, the tested form may be a part): as above
inhibition values by entry
Write down the numeric answer in % and omit the unit.

Suppose we examine the compound COc1cc(/C=C/c2ccc(OCC(=O)NCc3ccncc3)cc2)c(/C=C/[N+](=O)[O-])c(OC)c1 ; what inhibition value has been reported?
65.4

What about this compound? CCCCNC(=O)COc1ccc(/C=C/c2cc(OC)cc(OC)c2/C=C/[N+](=O)[O-])cc1
70.1

Same again, this time with COc1cc(/C=C/c2ccc(OCC(=O)NC3CCCCC3)cc2)c(/C=C/[N+](=O)[O-])c(OC)c1
41.8

Request: COc1cc(/C=C/c2ccc(OCC(=O)NCc3ccccc3)cc2)c(-c2cnn[nH]2)c(OC)c1
31.6

Now give it for C=CCCCOc1ccc(/C=C/c2cc(OC)cc(OC)c2/C=C/[N+](=O)[O-])cc1 too.
33.5

====

Items are presented alongside their recorded inhibition.
molecular target: NACHT, LRR and PYD domains-containing protein 3 (Mus musculus); test: Inhibition of NLRP3 inflammasome activation in LPS-stimulated mouse J774A.1 cells assessed as inhibition of cell pyrolysis at 20 uM incubated for 1 hr followed by ATP addition and measured after 30 mins by Hoechst 33342/propidium iodide staining based high content screening method relative to control; conditions: J774.A1, time 1.5 hrs
Kindly answer with a numeric value in %, unit omitted.

Past entries and their recorded results:
- Smiles Notation: "COc1cc(/C=C/c2ccc(OCC(=O)NCc3ccc(C)cc3)cc2)c(/C=C/[N+](=O)[O-])c(OC)c1"
  Assayed Target: "NACHT, LRR and PYD domains-containing protein 3 (Mus musculus)"
  inhibition, %: 31.9
- Smiles Notation: "COc1cc(/C=C/c2ccc(OCc3ccc(C(F)(F)F)cc3)cc2)c(/C=C/[N+](=O)[O-])c(OC)c1"
  Assayed Target: "NACHT, LRR and PYD domains-containing protein 3 (Mus musculus)"
  inhibition, %: 23.7
- Smiles Notation: "COc1cc(/C=C/c2ccc(OCc3ccc(C(F)(F)F)cc3)cc2)c(-c2cnn[nH]2)c(OC)c1"
  Assayed Target: "NACHT, LRR and PYD domains-containing protein 3 (Mus musculus)"
  inhibition, %: 3.25
- Smiles Notation: "COc1cc(/C=C/c2ccc(OCC(=O)Nc3ccc(Cl)cc3)cc2)c(/C=C/[N+](=O)[O-])c(OC)c1"
  Assayed Target: "NACHT, LRR and PYD domains-containing protein 3 (Mus musculus)"
  inhibition, %: 40.1
- Smiles Notation: "C=C1C(=O)[C@]23[C@H](O)[C@H]1CC[C@H]2[C@@]12CO[C@]3(O)[C@@H](O)[C@@H]1C(C)(C)CC[C@@H]2O"
  Assayed Target: "NACHT, LRR and PYD domains-containing protein 3 (Mus musculus)"
  inhibition, %: 83.3

Give its inhibition value. Item: C=CCCCOc1ccc(/C=C/c2cc(OC)cc(OC)c2)cc1
12.1

// same read-out, input: COc1cc(/C=C/c2ccc(OCC(=O)NCC3CCOCC3)cc2)c(/C=C/[N+](=O)[O-])c(OC)c1
25.3

// same read-out, input: COc1cc(/C=C/c2ccc(OCC(=O)NCc3ccc(C#N)cc3)cc2)c(/C=C/[N+](=O)[O-])c(OC)c1
59.9
